Data origin, for the record: patent US20230115176A1

Entries annotated with measured pIC50
- tgt: Human C5 (Homo sapiens, UniProt P01031)
- Construct: purchased Complement Technology
- Sequence (P01031 19-1676): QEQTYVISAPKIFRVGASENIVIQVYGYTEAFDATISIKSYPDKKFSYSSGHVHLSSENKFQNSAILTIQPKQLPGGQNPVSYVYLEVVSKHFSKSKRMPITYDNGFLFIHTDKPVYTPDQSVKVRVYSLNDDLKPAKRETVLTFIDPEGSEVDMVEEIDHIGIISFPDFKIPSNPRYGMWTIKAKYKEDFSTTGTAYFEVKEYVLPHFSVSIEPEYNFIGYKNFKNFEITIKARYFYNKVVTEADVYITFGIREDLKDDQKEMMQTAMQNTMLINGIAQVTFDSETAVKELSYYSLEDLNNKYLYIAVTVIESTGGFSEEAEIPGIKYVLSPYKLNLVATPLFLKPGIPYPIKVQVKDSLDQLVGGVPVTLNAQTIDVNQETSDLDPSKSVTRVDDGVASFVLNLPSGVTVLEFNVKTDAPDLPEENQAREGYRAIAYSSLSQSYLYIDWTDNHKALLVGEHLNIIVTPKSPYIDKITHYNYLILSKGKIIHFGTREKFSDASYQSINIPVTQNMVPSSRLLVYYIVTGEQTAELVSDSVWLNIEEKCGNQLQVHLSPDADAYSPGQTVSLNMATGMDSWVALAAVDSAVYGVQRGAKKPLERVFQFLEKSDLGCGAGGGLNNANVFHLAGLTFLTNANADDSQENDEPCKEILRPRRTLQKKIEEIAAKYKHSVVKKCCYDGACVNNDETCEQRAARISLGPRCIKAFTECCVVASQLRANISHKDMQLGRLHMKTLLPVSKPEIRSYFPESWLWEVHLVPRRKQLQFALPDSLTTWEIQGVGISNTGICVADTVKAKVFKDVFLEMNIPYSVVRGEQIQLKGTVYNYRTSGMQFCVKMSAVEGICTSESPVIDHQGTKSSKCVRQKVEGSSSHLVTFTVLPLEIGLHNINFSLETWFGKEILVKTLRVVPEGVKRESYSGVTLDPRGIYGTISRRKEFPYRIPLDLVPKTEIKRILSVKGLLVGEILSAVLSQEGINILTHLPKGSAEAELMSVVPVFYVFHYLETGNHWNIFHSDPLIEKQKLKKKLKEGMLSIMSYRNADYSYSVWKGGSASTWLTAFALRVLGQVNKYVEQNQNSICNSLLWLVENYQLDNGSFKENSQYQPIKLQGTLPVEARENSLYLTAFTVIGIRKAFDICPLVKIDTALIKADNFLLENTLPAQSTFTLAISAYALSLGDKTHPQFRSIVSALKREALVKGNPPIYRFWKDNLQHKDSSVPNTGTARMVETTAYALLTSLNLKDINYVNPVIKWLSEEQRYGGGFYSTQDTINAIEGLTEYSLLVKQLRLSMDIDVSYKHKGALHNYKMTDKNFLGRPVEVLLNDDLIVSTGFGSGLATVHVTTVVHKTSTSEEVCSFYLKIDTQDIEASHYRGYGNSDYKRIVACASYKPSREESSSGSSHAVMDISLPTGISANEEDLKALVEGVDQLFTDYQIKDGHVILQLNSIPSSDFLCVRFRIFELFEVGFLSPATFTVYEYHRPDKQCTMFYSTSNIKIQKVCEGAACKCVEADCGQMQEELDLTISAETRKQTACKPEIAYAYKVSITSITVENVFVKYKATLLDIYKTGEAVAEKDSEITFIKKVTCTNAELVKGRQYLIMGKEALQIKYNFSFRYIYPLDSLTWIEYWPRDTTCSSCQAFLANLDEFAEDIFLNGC
- method-notes: Red blood cell (RBC) hemolysis assay, luminescent (Example 13, Table 22)
- Format: cell-based
- condition-summary: sheep EA cells, […] C5-depleted human serum, 0.5 nM human C5, 1 hour 37° C., luminescence
pIC50: −log10 of the molar value.
reported-endpoint: pIC50

1) COc1ccc(F)cc1CN1CCCN(c2ccc(OC)c(OCc3ccccc3)c2)C1=O [CU0164]: 6.23
2) CCCCCOc1cc(N2CCCN(Cc3ccc(CN(C)C(=O)OC)cc3OC)C2=O)ccc1OC [CU0149]: 7.62
3) CCCCCOc1cc(N2CCCN(Cc3cccc4c3ccn4CC(=O)N3CCOC(CN(C)C)C3)C2=O)ccc1OC (centres unmarked) [CU0247]: 8.01
4) CCCCCOc1cc(N2CCN(Cc3ccccc3Cl)C2=O)ccc1OC [CU0009]: 6.69
5) COc1ccc(F)cc1CN1CCCN(c2ccc(OC)c(OCCC[C@H]3C[C@H]3C)c2)C1=O [CU0206]: 7.92
6) CCCCCOc1cc(N2CCN(Cc3ccnc4c3ccn4CC(=O)N(C)C)C2=O)ccc1OC [CU0033]: 6.87
7) COc1cc(CC(=O)N2CCOCC2)ccc1CN1CCCN(c2ccc(OC)c(OCCCC(C)(F)F)c2)C1=O [CU0145]: 7.82
8) CCCCCOc1cc(N2CCCN(Cc3cc(-c4cnn(C5COC5)c4)ccc3OC)C2=O)ccc1OC [CU0129]: 7.21
9) CCCCCOc1cc(N2CCCN(Cc3cccc4c3c(F)cn4CC(=O)N(C)C)C2=O)ccc1OC [CU0232]: 7.67
10) COc1ccc(F)cc1CN1CCCN(c2ccc(OC)c(OCCC3CCCCC3)c2)C1=O [CU0216]: 7.57
11) CCCCCOc1cc(N2CCCN(Cc3cccc4c3ccn4CC(=O)N(C)C)C2=O)ccc1C1CC1 [CU0026]: 7.20
12) COc1ccc(F)cc1CN1CCCN(c2ccc(OC)c(OCCc3ccccc3C)c2)C1=O [CU0215]: 7.47
13) COc1ccc(F)cc1CN1CCCN(c2ccc(OC)c(OCCC[C@H]3C[C@@H]3C)c2)C1=O [CU0205]: 8.29
14) CCCCCOc1cc(N2CCCN(Cc3ccnc4c3ccn4CCN3CCCC3)C2=O)ccc1OC [CU0254]: 7.73

---

- tgt: Human C5 (Homo sapiens)
- Construct: purchased Complement Technology
- method-notes: Red blood cell (RBC) hemolysis assay, luminescent (Example 28, Table 32)
- Type: cell-based
- condition-summary: sheep EA cells, 1.5% C5-depleted human serum, 0.5 nM human C5, 1 hour at 37° C., luminescence (Table 32)
Criterion: IC50 strictly under 8 nM. Met: true. Not met: false.

1) CCCCCOc1cc(N2CC[C@@H](C)N(Cc3cccc4[nH]ccc34)C2=O)ccc1OC [SC0214]: false
2) CCCCCOc1cc(N2CC(C(N)=O)CN(Cc3ccc(CC(=O)N(C)C)cc3OC)C2=O)ccc1OC (stereo not drawn) [SC0204]: false
3) CCCCCOc1cc(N2CC[C@H](C)N(Cc3cccc(OC)c3O)C2=O)ccc1OC [SC0195]: false
4) COc1cc(CC(=O)N[C@@H]2CN(CCO)C[C@@H]2F)ccc1CN1C(=O)N(c2ccc(OC)c(OCCCC3CC3)c2)CC[C@@H]1C [SC0136]: true
5) CCCCCOc1cc(N2CC(CO)CN(Cc3ccc(CC(=O)N4CCOCC4)cc3OC)C2=O)ccc1OC (stereo not drawn) [SC0183]: true
6) COc1cc(CCN2CCS(=O)(=O)CC2)ccc1CN1C(=O)N(c2ccc(OC)c(OCCCC3CC3)c2)CC[C@@H]1C [SC0162]: true
7) CCCCCOc1cc(N2CC(CO)CN(Cc3ccc(CNC(=O)c4cocn4)cc3OC)C2=O)ccc1OC (stereo not drawn) [SC0104]: true
8) COc1cc(Cc2ccncn2)ccc1CN1C(=O)N(c2ccc(OC)c(OCCCC3CC3)c2)CC[C@@H]1C [SC0102]: true
9) CCCCCOc1cc(N2CC[C@H](C)N(Cc3cccc4c3cc(C)n4CC(=O)N(C)C)C2=O)ccc1OC [SC0218]: false
10) CCCCCOc1cc(N2C[C@H](CO)CN(Cc3ccc(CC(=O)N(C)C)cc3OC)C2=O)ccc1OC [SC0176]: true
11) COc1cc(CC(=O)N2CCNC(=O)C2)ccc1CN1C(=O)N(c2ccc(OC)c(OCCCC3CC3)c2)CC[C@@H]1C [SC0118]: true
12) COc1cc(CC(=O)N[C@@H]2CN(C)C[C@@H]2F)ccc1CN1C(=O)N(c2ccc(OC)c(OCCCC3CC3)c2)CC[C@@H]1C [SC0109]: true
13) CCN1CC[C@@H](N(C)C(=O)Cc2ccc(CN3C(=O)N(c4ccc(OC)c(OCCCC5CC5)c4)CC[C@@H]3C)c(OC)c2)C1 [SC0144]: true
14) CCCCCOc1cc(N2CC(C)CN(Cc3ccc(CNC(=O)c4cnco4)cc3OC)C2=O)ccc1OC (stereo not drawn) [SC0159]: true
15) CCCCCOc1cc(N2CC(C)CN(Cc3ccc(C#N)cc3OC)C2=O)ccc1OC (stereo not drawn) [SC0228]: false
